Data provenance: patent US20080044360A1

# measuredTarget: human collagen type I, acid soluble, extracted from placenta (Sigma C7774) (human) (UniProt P02452)
# Sequence (P02452 162-1218 limits assumed, chain 1 of 2): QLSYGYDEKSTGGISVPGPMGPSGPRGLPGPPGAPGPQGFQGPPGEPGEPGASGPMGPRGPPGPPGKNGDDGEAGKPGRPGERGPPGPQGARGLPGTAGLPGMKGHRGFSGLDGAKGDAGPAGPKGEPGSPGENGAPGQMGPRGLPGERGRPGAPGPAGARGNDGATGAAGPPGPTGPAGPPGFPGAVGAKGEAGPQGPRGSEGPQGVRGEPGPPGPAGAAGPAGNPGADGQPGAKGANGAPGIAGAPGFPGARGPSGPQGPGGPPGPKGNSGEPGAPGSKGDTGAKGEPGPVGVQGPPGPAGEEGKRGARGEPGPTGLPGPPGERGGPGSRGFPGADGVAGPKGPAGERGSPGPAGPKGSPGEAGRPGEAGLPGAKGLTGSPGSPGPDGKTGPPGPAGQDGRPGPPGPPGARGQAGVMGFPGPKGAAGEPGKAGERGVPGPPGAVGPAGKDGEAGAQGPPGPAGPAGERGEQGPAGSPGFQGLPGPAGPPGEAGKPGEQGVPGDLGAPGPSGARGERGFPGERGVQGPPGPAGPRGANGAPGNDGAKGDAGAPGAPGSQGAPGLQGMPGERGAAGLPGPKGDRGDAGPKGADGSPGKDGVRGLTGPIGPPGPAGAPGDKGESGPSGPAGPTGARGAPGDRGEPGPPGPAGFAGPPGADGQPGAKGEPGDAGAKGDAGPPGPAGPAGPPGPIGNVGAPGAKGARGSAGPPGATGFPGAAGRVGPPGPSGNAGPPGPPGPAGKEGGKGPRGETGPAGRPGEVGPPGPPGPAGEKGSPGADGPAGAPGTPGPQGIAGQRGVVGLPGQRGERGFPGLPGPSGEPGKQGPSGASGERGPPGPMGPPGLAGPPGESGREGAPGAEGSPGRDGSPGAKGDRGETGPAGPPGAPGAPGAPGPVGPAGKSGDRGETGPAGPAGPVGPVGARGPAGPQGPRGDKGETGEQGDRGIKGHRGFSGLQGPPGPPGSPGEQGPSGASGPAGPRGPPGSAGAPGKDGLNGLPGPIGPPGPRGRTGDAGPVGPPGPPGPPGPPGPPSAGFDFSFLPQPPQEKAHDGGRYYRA
# Sequence (P08123 80-1119 limits assumed, chain 2 of 2, further chain): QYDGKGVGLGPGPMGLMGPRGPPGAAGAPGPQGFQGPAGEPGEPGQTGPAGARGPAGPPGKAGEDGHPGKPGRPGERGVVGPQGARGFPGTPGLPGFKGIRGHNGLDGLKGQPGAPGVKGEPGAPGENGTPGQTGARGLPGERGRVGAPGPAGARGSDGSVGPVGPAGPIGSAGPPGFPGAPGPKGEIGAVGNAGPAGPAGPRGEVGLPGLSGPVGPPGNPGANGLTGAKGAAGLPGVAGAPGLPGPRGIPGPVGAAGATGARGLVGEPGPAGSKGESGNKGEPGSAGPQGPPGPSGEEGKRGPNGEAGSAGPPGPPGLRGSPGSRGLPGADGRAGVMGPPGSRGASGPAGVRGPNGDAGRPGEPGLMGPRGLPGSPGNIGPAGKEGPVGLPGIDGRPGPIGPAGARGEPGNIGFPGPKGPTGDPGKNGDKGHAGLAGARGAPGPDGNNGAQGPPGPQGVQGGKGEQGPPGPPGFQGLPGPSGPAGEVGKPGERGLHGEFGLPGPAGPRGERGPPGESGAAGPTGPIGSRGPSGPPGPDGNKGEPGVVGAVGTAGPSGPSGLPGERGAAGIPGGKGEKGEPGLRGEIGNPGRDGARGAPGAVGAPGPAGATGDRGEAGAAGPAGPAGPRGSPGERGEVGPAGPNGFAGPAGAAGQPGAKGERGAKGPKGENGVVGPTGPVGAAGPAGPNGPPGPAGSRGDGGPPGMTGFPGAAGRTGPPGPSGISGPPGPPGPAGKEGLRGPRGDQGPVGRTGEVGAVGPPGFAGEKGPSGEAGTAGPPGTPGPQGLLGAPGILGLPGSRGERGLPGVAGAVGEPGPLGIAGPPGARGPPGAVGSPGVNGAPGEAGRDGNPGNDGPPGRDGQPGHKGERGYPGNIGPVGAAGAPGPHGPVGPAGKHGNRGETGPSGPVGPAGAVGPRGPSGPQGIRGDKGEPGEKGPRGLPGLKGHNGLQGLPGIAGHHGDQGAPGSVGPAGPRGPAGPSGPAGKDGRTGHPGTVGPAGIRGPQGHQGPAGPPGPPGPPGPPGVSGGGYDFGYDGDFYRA
# assayNotes: dried collagen assay
Bridge positions count the residues as written; N and C are the ends. Square brackets hold non-standard residues; d marks the D form. Primed or numbered codes have the meaning given here. Ends that are not written are not given here. * marks the point of attachment. GdDTPA‑thiourea = GdT is GdDTPA-thiourea (Gd-DTPA chelate attached through a thiourea); Phe(3,4-(OMe)2) = COc1ccc(C[C@H](N)C(=O)O)cc1OC; Phe(4-CN) = N#Cc1ccc(C[C@H](N)C(=O)O)cc1; Orn = NCCC[C@H](N)C(=O)O; Gd^T″ = GdDTPA-thiourea; Cbz = O=C(OCc1ccccc1)*
For each entry below, report its % bound value.
One number for each entry, in %.

Study these solved cases before continuing.
{Gd^T″}-GQWHCT[dR]RFPHHYCLYG (disulfide 5-14 (inferred); not fully specified (C-terminus)) [Compound ID 900]    4
QWFCEMDEYGKWNCGMM (disulfide 4-14 (inferred)) [SEQ ID NO 81]    3
Cbz-GQWHCT[Orn](GdDTPA‑thiourea)RFPHHYCLYG (disulfide 5-14 (inferred); also: gadolinium complex (GdDTPA)) [Compound ID 941]    8

Okay, here is my list. What is % bound for each of these?
1. {Gd^T″}-GQWHCTTD[Phe(4-CN)]PHHYCLYG (disulfide 5-14 (inferred)) [Compound ID 883]
2. FSECVWVNAYQCEYF (disulfide 4-12 (inferred)) [SEQ ID NO 113]
3. SWHCFLENHHWMCSDH (disulfide 4-13 (inferred)) [SEQ ID NO 68]
4. {Gd^T″}-GQWHCTTD[Phe(3,4-(OMe)2)]PHHYCLYG (disulfide 5-14 (inferred)) [Compound ID 893]
5. {Gd^T″}-GQWHCT[dN]RFPHHYCLYG (disulfide 5-14 (inferred); not fully specified (C-terminus)) [Compound ID 897]

1: 8; 2: 3; 3: 5; 4: 4; 5: 4
